Cited source: paper PMC6934227

- Target: GPR32 (DRV1) (Homo sapiens)
- Construct: CHO cells stably expressing human recombinant GPR32 coupled to a β-arrestin reporter system
- Assay remarks: PathHunter β-arrestin recruitment in CHO cells (reference agonist)
- Assay type: cell-based
Metric name: EC50

Which EC50 reading was recorded for the compound CC/C=C\C[C@H](O)/C=C/C=C\C=C\C=C\[C@@H](O)[C@@H](O)C/C=C\CCC(=O)O ?
~1.5 pM

====

- Target: GPR32 (DRV1) (Homo sapiens, UniProt O75388)
- Construct: CHO cells stably expressing human recombinant GPR32 coupled to a β-arrestin reporter system
- Sequence (O75388 whole entry): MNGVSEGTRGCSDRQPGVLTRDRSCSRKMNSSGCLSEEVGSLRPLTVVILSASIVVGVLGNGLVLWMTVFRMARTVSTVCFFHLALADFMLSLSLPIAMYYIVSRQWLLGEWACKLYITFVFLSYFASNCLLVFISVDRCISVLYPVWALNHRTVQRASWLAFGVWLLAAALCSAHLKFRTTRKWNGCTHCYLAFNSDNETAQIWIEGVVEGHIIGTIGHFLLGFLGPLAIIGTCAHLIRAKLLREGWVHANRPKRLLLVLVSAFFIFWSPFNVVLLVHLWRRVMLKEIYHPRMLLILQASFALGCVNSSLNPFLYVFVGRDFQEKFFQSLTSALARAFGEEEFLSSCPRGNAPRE
- Assay remarks: PathHunter β-arrestin recruitment in CHO cells
- Assay type: cell-based
Metric name: EC50

Item under review: CC/C=C\C[C@H](O)/C=C/C=C\C/C=C\C=C\[C@@H](O)CCCCCC(=O)O . Reported EC50?
~14 pM
